Task for the reader: assign each of the following molecules its reported Ki.
biological target: MDM2 (Homo sapiens); assay: Competitive fluorescence polarization assay for MDM2; assay type: binding; settings: competitive FP assay, MDM2; read-out: Ki (MDM2)
Sequence (Q00987 1-125): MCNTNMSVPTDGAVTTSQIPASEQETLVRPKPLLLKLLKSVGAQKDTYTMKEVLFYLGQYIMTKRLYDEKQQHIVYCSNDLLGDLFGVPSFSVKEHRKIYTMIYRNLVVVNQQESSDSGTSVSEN
Where a SMILES comes first, the peptide text is derived from it. Bridges are numbered along the chain shown (N, C = ends). [ ]: non-standard residue; d: D form. R8 = C=CCCCCCC[C@@](C)(N)C(=O)O; Cba = N[C@@H](CC1CCC1)C(=O)O; S5 = C=CCCC[C@](C)(N)C(=O)O

Tell me its Ki given CC(=O)N[C@@H](CC(C)C)C(=O)N[C@H](C(=O)N[C@@H](Cc1ccccc1)C(=O)N[C@]1(C)CCCCCCC=CCCC[C@@](C)(C(=O)N[C@@H](CO)C(=O)N[C@@H](C)C(=O)N[C@@H](Cc2ccccc2)C(N)=O)NC(=O)[C@H](CC2CCC2)NC(=O)[C@H](CCC(N)=O)NC(=O)[C@H](Cc2c[nH]c3ccccc23)NC(=O)[C@H](Cc2c[nH]c3ccccc23)NC(=O)[C@H](Cc2ccc(O)cc2)NC(=O)[C@H](C)NC1=O)[C@@H](C)O [compound 263] (Ac-LTF[R8]AYWWQ[Cba][S5]SAF-NH2; staple 4-11) as the entry.
< 10 nM

Tell me its Ki given CCCC[C@H](NC(=O)[C@H](C)NC(=O)[C@H](C)NC(=O)[C@]1(C)CCCC=CCCCCCC[C@@](C)(NC(=O)[C@H](Cc2ccccc2)NC(=O)[C@@H](NC(=O)[C@H](CC(C)C)NC(C)=O)[C@@H](C)O)C(=O)N[C@@H](C)C(=O)N[C@@H](Cc2ccc(O)cc2)C(=O)N[C@@H](Cc2c[nH]c3ccccc23)C(=O)N[C@@H](C)C(=O)N[C@@H](CCC(N)=O)C(=O)N[C@@H](CC(C)C)C(=O)N1)C(=O)N(C)CC(N)=O (single isomer, unassigned) as the entry.
< 10 nM
